- System: COLO 205 colon
- PROTOCOL NOTES: NCI tumour cell line growth inhibition, 48 h; in the data active means GI50 below about 0.43 µM; inactive means the rest
// allowed return values: active, inactive

Look over these answered cases.
1) CCC1=CC2CN(C1)Cc1c([nH]c3ccccc13)[C@@](C(=O)OC)(c1cc3c(cc1OC)N(C)[C@H]1[C@@](O)(C(=O)OC)[C@H](OC(C)=O)[C@]4(CC)C=CCN5CC[C@]31[C@@H]54)C2 (stereo partly drawn) : active
2) O=C1OCC2=C1C(c1ccccc1)c1cc3c(cc1N2CCO)OCO3 (stereo not drawn) : inactive
3) COC(=O)C1(C)Cc2cc(OC(C)=O)c(OC(C)=O)cc2N1 (stereo not drawn) : inactive
4) COc1ccc2c(c1)/C(=C/c1cc(OC)c(OC)c(OC)c1)C(=O)N2 : inactive
5) O=S(=O)(NCCCNc1nccc(-c2c(-c3ccc(F)cc3)nc3sccn23)n1)c1ccc2ccccc2c1 : inactive
6) O=C1CCCCN1CCCCC#Cc1cccc(C#Cc2cccnc2)c1 : inactive
7) C=C1C(=O)O[C@H]2[C@H]1CC/C(COC(=O)NCC(C)c1ccc(CC(C)C)cc1)=C\CC[C@@]1(C)O[C@@H]21 (stereo partly drawn) : inactive

Consider now this further compound.
Please share the test call associated with "CCCCn1c(-c2ccc(C(=O)O/N=C(\N)c3ccc4c(c3)OCO4)cc2)nc(-c2ccccc2)c1-c1ccccc1" .
inactive
